The reported numbers originate from PubChem BioAssay AID1996.

conditions: buffer; pH 7.4; 200.0 µM
OBSERVED_PROPERTY: solubility kinetic (mg/mL)
Field: numeric (mg/mL). Do not append units.

>  <MOLECULE_SMILES>
O=C(CN1C(=O)c2ccc([N+](=O)[O-])cc2C1=O)Nc1nccs1

>  <solubility kinetic, mg/mL>
0.0262

$$$$

**Query** Fill in the blank: the reported solubility kinetic of O=C(Nc1ccc(Br)cc1)Nc1cnccn1 is ____.
**Result** 0.003

**Query** // solubility kinetic lookup, key: CN1CCN(Cc2cc(=O)n3ccsc3n2)CC1
**Result** 0.0357

**Query** Tell me the measured solubility kinetic of CCOC(=O)c1c(/N=C/c2cccc([N+](=O)[O-])c2O)sc2c1CCC2 , please.
**Result** 0.0499

**Query** For the compound shown here, CCN(Cc1ccccc1)C(=O)c1cc2c(OC)c(OC)c(OC)cc2[nH]1 , give the reported solubility kinetic.
**Result** 0.0318

**Query** What solubility kinetic value was documented for this compound, N/C(=N\OC(=O)Cc1ccccc1)c1cccc(Br)c1 ?
**Result** 0.0011

---

Documented solubility kinetic across a set of molecules
conditions: buffer; pH 7.4; 200.0 µM
Dear colleague, please return just the value in µg/mL, with no unit written.

>  <MOLECULE_SMILES>
CC(=O)c1sc2nsc(SCCN3CCCCC3)c2c1N

>  <solubility kinetic / µg/mL>
47.5

$$$$
>  <MOLECULE_SMILES>
CS(=O)(=O)Nc1cc2c3c(c1)CCC(=O)N3CCC2

>  <solubility kinetic / µg/mL>
39.9

$$$$

**Query** Reported solubility kinetic for CCCCCCN=C1CC(C)(C)CC(=O)/C1=C(/O)CCC : what is it?
**Result** 19.5

---

conditions: buffer; pH 7.4; 200.0 µM
OBSERVED_PROPERTY: solubility kinetic (µg/mL)
Dear colleague, please return just the value in µg/mL, with no unit written.

>  <COMPOUND>
Fc1ccccc1CNCCc1ccc2c(c1)OCO2

>  <UNIT_OF_MEASUREMENT>
µg/mL

>  <solubility kinetic>
40.5

$$$$

**Query** # query: solubility kinetic of entry O=C(NC1CCN(C(=O)Nc2cccc(Cl)c2)CC1)c1ccccc1
**Result** 0.4

**Query** Would you kindly share the measured solubility kinetic for Cc1cccc(OC(C)C(=O)OCC(=O)N2CCN(c3ccccc3)CC2)c1 (configuration not stated) ?
**Result** 43.4

**Query** Sample Cc1ccc(C(=O)NCCCNc2ccccc2[N+](=O)[O-])cc1 — what was its solubility kinetic?
**Result** 3.4

**Query** Item under review: CCCCNC(=O)c1cc2c(C)cc(C)cc2[nH]1 . Reported solubility kinetic?
**Result** 2.2

**Query** # lookup: solubility kinetic of CCOC(=O)c1cc(C#N)c(SC)nc1C
**Result** 0.9

---

settings: buffer; pH 7.4; 200.0 µM
# binarize solubility kinetic: threshold 20 µg/mL inclusive, high side rule met, low side rule not met

Example entries begin here.
>  <COMPOUND>
N/C(=N\OC(=O)Cc1ccccc1[N+](=O)[O-])c1ccccn1

>  <CATEGORY_LABEL>
rule met

$$$$
>  <COMPOUND>
CC(C)CCNC(=O)c1cc2c(s1)-c1ccccc1S(=O)(=O)C2

>  <CATEGORY_LABEL>
rule not met

$$$$
>  <COMPOUND>
CC(C)(C)NC(=S)N1CCn2cccc2C1c1cccnc1 (stereo not given)

>  <CATEGORY_LABEL>
rule met

$$$$

**Query** Reported solubility kinetic at or above 20 µg/mL? COCC[N+]1(C)CCCCC1.[I-]
**Result** rule met

**Query** Hello, I need to know if CCOC(=O)c1c(C)[nH]c(C(=O)N2CCN(CC)CC2)c1C has measured solubility kinetic not below 20 µg/mL. Thanks!
**Result** rule met

**Query** Given CC(C)CC(N=Cc1c(O)c2ccccc2oc1=O)C(=O)O (stereo not given) , state whether its solubility kinetic is at least 20 µg/mL.
**Result** rule met

**Query** Could you please find out whether CCCc1c(C)nc(N2CCN(c3ccccc3OC)CC2)[nH]c1=O has solubility kinetic that meets 20 µg/mL or exceeds it?
**Result** rule not met

**Query** I'd appreciate it if you could say whether CCn1c(CNC(=O)C23CC4CC(CC(C4)C2)C3)nnc1SC has solubility kinetic at least equal to 20 µg/mL.
**Result** rule met

**Query** Exam item: decide whether the reported solubility kinetic for Cc1ccc2nc(Nc3ncc4c(n3)CC(C)(C)CC4=O)nc(C)c2c1 is at least 20 µg/mL.
**Result** rule not met

**Query** Textbook exercise: given the entry CC(C)C(NS(=O)(=O)c1ccccc1)C(=O)N1CCCC1 (stereo not given) , state whether its solubility kinetic is greater than or equal to 20 µg/mL.
**Result** rule met

**Query** Evaluate NS(=O)(=O)c1ccc(CCNC(=S)NC2CCCC2)cc1 : solubility kinetic at minimum 20 µg/mL?
**Result** rule met

**Query** Is reported solubility kinetic greater than or equal to 20 µg/mL here: CCN1CCN(CC(=O)c2cc(Cl)ccc2Cl)CC1
**Result** rule met

**Query** Form field: solubility kinetic at least 20 µg/mL? Entry: CCC(=O)N1CCCc2ccccc21
**Result** rule met

---

conditions: buffer; pH 7.4; 200.0 µM
Below, each of the compounds is paired with its reported solubility kinetic value.
# unit: µg/mL | format: bare number

>  <COMPOUND>
O=C(NCCc1c[nH]c2ccccc12)c1ccc(Br)o1

>  <REPORTED_RESULT>
45.7

$$$$
>  <COMPOUND>
Cc1ccccc1OCCCN1CCOCC1

>  <REPORTED_RESULT>
31.3

$$$$
>  <COMPOUND>
CCOc1ccc(NC(=O)CCC(=O)c2ccc(OC)cc2)cc1

>  <REPORTED_RESULT>
3

$$$$
>  <COMPOUND>
Cc1cc(C(=O)Nc2cccc(S(=O)(=O)N3CCOCC3)c2)c2ccccc2n1

>  <REPORTED_RESULT>
13.1

$$$$
>  <COMPOUND>
O=C(OC1CCOC1=O)c1cc(Cl)ccc1[N+](=O)[O-] (stereo not drawn)

>  <REPORTED_RESULT>
42.1

$$$$
>  <COMPOUND>
O=C(/C=C/c1ccccc1[N+](=O)[O-])Nc1cccc(S(=O)(=O)NC2=NCCCCC2)c1

>  <REPORTED_RESULT>
14.4

$$$$

**Query** Quick check: solubility kinetic of CCC(CC)COC(=O)C1=C(C)NC(=O)NC1c1ccc(OC)cc1 (stereo not drawn) ?
**Result** 3

**Query** Could you share which solubility kinetic value was measured for CCCc1cc(=O)[nH]c(SCCc2ccccc2)n1 ?
**Result** 17.4

---

Listed below: log10 solubility kinetic values for each entry.
conditions: buffer; pH 7.4; 200.0 µM
In our notation, the value equals log10 of solubility kinetic in µg/mL.

>  <MOLECULE>
O=C(NCCNc1ccc([N+](=O)[O-])cc1)c1cccs1

>  <log10 solubility kinetic>
0.83

$$$$
>  <MOLECULE>
OCCNCCCOc1cc(Cl)ccc1Cl

>  <log10 solubility kinetic>
1.50

$$$$
>  <MOLECULE>
O=C1CCc2ccccc2N1Cc1ccccc1

>  <log10 solubility kinetic>
1.51

$$$$
>  <MOLECULE>
FC(F)(F)c1ccccc1CNCc1ccc2c(c1)OCO2

>  <log10 solubility kinetic>
1.41

$$$$
>  <MOLECULE>
CC(=O)Nc1ccc2c3c(cccc13)C(=O)N(c1ccccc1)C2=O

>  <log10 solubility kinetic>
0.36

$$$$
>  <MOLECULE>
CCn1c(=O)c([N+](=O)[O-])c(N2CCSCC2)c2ccccc21

>  <log10 solubility kinetic>
1.17

$$$$

**Query** log10 solubility kinetic for COc1ccc(CCC(=O)NCc2ccc3c(c2)OCO3)cc1 ?
**Result** 1.36

**Query** Given the entry COc1ccc(OC)c(/C=C/c2nc3ccccc3[nH]c2=O)c1 , report its measured log10 solubility kinetic.
**Result** 0.49

**Query** May I ask what log10 solubility kinetic has been recorded for Cc1cccc(NC(=S)NCCc2ccc(Cl)cc2)c1C ?
**Result** -0.22

**Query** log10 solubility kinetic lookup needed for COc1ccc(OC)c(/C=C/C(=O)NC2=NCCS2)c1 , thanks.
**Result** 0.60

---

In this section, each of the molecules is paired with its reported solubility kinetic.
conditions: buffer; pH 7.4; 200.0 µM
Please respond with the number in µg/mL and leave the unit unwritten.

>  <MOLECULE>
Cc1ccc(C)c(NC(=S)NCc2ccccc2)c1

>  <UNIT_OF_MEASUREMENT>
µg/mL

>  <REPORTED_RESULT>
40.2

$$$$
>  <MOLECULE>
O=C(Nc1ccc2c(c1)C(=O)OC2)c1ccc(F)cc1F

>  <UNIT_OF_MEASUREMENT>
µg/mL

>  <REPORTED_RESULT>
2.3

$$$$
>  <MOLECULE>
CN(C(=O)CSC(=O)c1ccccc1)c1ccccc1

>  <UNIT_OF_MEASUREMENT>
µg/mL

>  <REPORTED_RESULT>
40.6

$$$$
>  <MOLECULE>
CCc1ccc(NC(=O)c2cnc(SC)nc2C)cc1

>  <UNIT_OF_MEASUREMENT>
µg/mL

>  <REPORTED_RESULT>
17.4

$$$$
>  <MOLECULE>
CC1CCC2(CC1)NC(=O)N(CC(=O)c1ccc3c(c1)OCO3)C2=O (configuration not stated)

>  <UNIT_OF_MEASUREMENT>
µg/mL

>  <REPORTED_RESULT>
3.8

$$$$
>  <MOLECULE>
Cc1c(C(=O)NC2CCCCC2)oc2ccccc12

>  <UNIT_OF_MEASUREMENT>
µg/mL

>  <REPORTED_RESULT>
5.3

$$$$

Please turn your attention to the following entry.
**Query** Consider the molecule shown here: COc1ccccc1CNC(=O)COC(=O)c1cc(C)oc1C What is its recorded solubility kinetic?
**Result** 4.3
